Assign logP to each entry below.
Form: value (number only, do not type unit).

The compound listed as COc1c(C#N)sc(S(C)=O)c1C#N (stereo not drawn) shows logP equal to 2.02

Given item CCCCCC(=O)c1ccc(S(=O)CC)c([N+](=O)[O-])c1 (stereo not drawn) , the value recorded as its logP is 4.36

Measured logP of CS(=O)c1sccc1C#N (stereo not drawn) : 0.96

The compound listed as CCS(=O)c1sc(C#N)c(OC)c1C#N (stereo not drawn) shows logP equal to 2.35

# logP of CS(=O)c1sccc1[N+](=O)[O-] (stereo not drawn) = 1.69

So, CCS(=O)c1nc(C)c([N+](=O)[O-])c(C)c1C#N (stereo not drawn) ? Its logP was 2.44

The compound identified as Cc1c(C#N)sc(S(C)=O)c1-c1ccccc1 (stereo not drawn) registered its logP at 3.36

The reported value for CCOC(=O)c1cc(C#N)c(S(C)=O)s1 (stereo not drawn) in terms of logP is 2.27

Sure, the documented logP for Cc1csc(S(C)=O)c1[N+](=O)[O-] (stereo not drawn) is 2.19

Query CC(=O)c1sc(S(C)=O)c(-c2ccccc2)c1C (stereo not drawn) yields logP of 3.26

Looking up CS(=O)c1cccs1 (stereo not drawn) , I found its logP recorded as 0.91

Lookup result for CCCS(=O)c1sc(C#N)cc1C#N (stereo not drawn) ; measured logP: 2.18

# logP of CCS(=O)c1ccc2ccccc2n1 (stereo not drawn) = 2.43

Note to self: logP recorded for CCS(=O)c1ccc(C(C)=O)s1 (stereo not drawn) was 1.31

Field logP (entry CCCCCC1(c2ccc(S(=O)CC)c([N+](=O)[O-])c2)OCCO1 (stereo not drawn) ) reads 5.11

Entry CCS(=O)c1cnc2ccccc2n1 (stereo not drawn) , logP reported as 2.29

Record CCCCS(=O)c1sc(C#N)cc1C#N (stereo not drawn) , field logP: 2.64

CCCS(=O)c1sccc1[N+](=O)[O-] (stereo not drawn) yielded logP of 2.52

According to the records, this compound CS(=O)c1ccsc1 (stereo not drawn) displays logP of 0.91

// logP value for CCS(=O)c1sc(C(C)=O)c(C)c1C#N (stereo not drawn) : 2.22

So for CCS(=O)c1c(Cl)cncc1Cl (stereo not drawn) , the logged logP turned out to be 2.1

Query CCS(=O)c1sccc1[N+](=O)[O-] (stereo not drawn) yields logP of 2.06

Entry CCS(=O)c1sc(C#N)c(C)c1C(C)=O (stereo not drawn) , logP reported as 2.22
